Each entry below carries its reported IC90.
System: Fusarium virguliforme (Fv)
Test: Growth inhibition assay of fungal pathogens, Fv
Type: cell-based
Settings: 48 h, read-out: Concentration at 90% Inhibition Fv, Fusarium virguliforme, growth inhibition at 48 hours vs 2% DMSO control
Answer format: numeric, µg/mL implied, no suffix.

Consider the worked cases shown below.
COc1ccc(F)cc1[C@H](Cn1c(=O)n(C(C)(C)C(=O)NC(C)C)c(=O)c2c(C)c(-n3nccn3)sc21)OCCC(=O)NO = 2
Cc1c(-n2nccn2)sc2c1c(=O)n(C(C)(C)C(=O)NC1CCC1)c(=O)n2C[C@H](OC(C)C)c1cc(F)ccc1OCC#N = 0.4
Cc1c(-n2nccn2)sc2c1c(=O)n(C(C)(C)C(=O)NC(C)C)c(=O)n2CCc1cc(F)ccc1OCc1ccccc1 = 2
COc1ccc(F)cc1[C@H](Cn1c(=O)n(CC(=O)NC(C)C)c(=O)c2c(C)c(-n3nccn3)sc21)OCCO = 2
CCNC(=O)C(C)(C)n1c(=O)c2c(C)c(-n3nccn3)sc2n(C[C@H](OC(C)C)c2cc(F)ccc2OC)c1=O = 0.4

Lookup: Requested field: IC90. Item: COc1ccc(F)cc1[C@H](Cn1c(=O)n(C(C)(C)C(=O)NC(C)C)c(=O)c2c(C)c(-n3nccn3)sc21)OCC#N
Found: 0.4

Lookup: Fill in the blank: the reported IC90 of COc1ccccc1[C@H](Cn1c(=O)n(C(C)(C)C(=O)N2CC(O)C2)c(=O)c2c(C)c(-n3nccn3)sc21)OC1CCOCC1 is ____.
Found: 10

Lookup: Record request: IC90 value, item COc1ccc(F)cc1[C@H](Cn1c(=O)n(C(C)(C)C(=O)N(C)C)c(=O)c2c(C)c(-n3nccn3)sc21)OC(C)C
Found: 0.4

Lookup: Return reported IC90; argument: COc1ccc(F)cc1[C@H](Cn1c(=O)n(C(C)(C)C(=O)NC(C)C)c(=O)c2c(C)c(-n3nccn3)sc21)OCC(C)(C)C#N
Found: 0.4

Lookup: Sample COCCO[C@@H](Cn1c(=O)n(CC(=O)NC(C)C)c(=O)c2c(C)c(-n3nccn3)sc21)c1cc(F)ccc1OC — what was its IC90?
Found: 2

Lookup: Look at this compound and give its reported IC90. C=CCO[C@@H](Cn1c(=O)n(C(C)(C)C(=O)NC(C)C)c(=O)c2c(C)c(-n3nccn3)sc21)c1cc(F)ccc1OC
Found: 0.4

Lookup: So what's the measured IC90 for this one? CNC(=O)C(C)(C)n1c(=O)c2c(C)c(-n3nccn3)sc2n(C[C@H](OC(C)C)c2cc(F)ccc2OC)c1=O
Found: 0.4

Lookup: What measured IC90 goes with COc1ccc(F)cc1[C@@H](CCCO)Cn1c(=O)n(C(C)(C)C(=O)NC(C)C)c(=O)c2c(C)c(-n3nccn3)sc21 ?
Found: 10
